# Test system: MCF7
# assay-name: Cytotoxicity against human MCF7 cells after 72 hrs by MTT assay
# Assay type: functional, cell-based
# condition-summary: MCF7, 72 h
# log10 IC50 annotations
observation-type: log10 IC50 (log10 of the value in µM)

[[record]]
smiles_entry = "COc1cc(/C=C2\\CCC/C(=C\\c3ccc(OC)c(OC)c3)C2=O)ccc1O"
observation_type = "log10 IC50"
recorded_value = 0.90

[[record]]
smiles_entry = "COc1cc(/C=C2\\CCC/C(=C\\c3cccc(OC)c3OC)C2=O)ccc1O"
observation_type = "log10 IC50"
recorded_value = 1.06

[[record]]
smiles_entry = "COc1cccc(/C=C2\\CCC/C(=C\\c3ccc(OC)c(OC)c3)C2=O)c1"
observation_type = "log10 IC50"
recorded_value = 0.66

[[record]]
smiles_entry = "COc1ccc(/C=C2\\CCC/C(=C\\c3ccc(Cl)cc3)C2=O)cc1OC"
observation_type = "log10 IC50"
recorded_value = 0.80

[[record]]
smiles_entry = "COc1ccc(/C=C2\\CCC/C(=C\\c3cccc(O)c3)C2=O)cc1OC"
observation_type = "log10 IC50"
recorded_value = 0.46

[[record]]
smiles_entry = "COc1ccc(/C=C2\\CCC/C(=C\\c3ccccc3Cl)C2=O)cc1OC"
observation_type = "log10 IC50"
recorded_value = 1.02

[[record]]
smiles_entry = "COc1ccc(/C=C2\\CCC/C(=C\\c3ccccc3Br)C2=O)cc1OC"
observation_type = "log10 IC50"
recorded_value = 0.98

[[record]]
smiles_entry = "COc1ccc(/C=C2\\CCC/C(=C\\c3ccc(Cl)cc3Cl)C2=O)cc1OC"
observation_type = "log10 IC50"
recorded_value = 1.21

[[record]]
smiles_entry = "COc1ccc(/C=C2\\CCC/C(=C\\c3ccc(O)c(Cl)c3)C2=O)cc1OC"
observation_type = "log10 IC50"
recorded_value = 1.09

[[record]]
smiles_entry = "COc1cc(/C=C2\\CCC/C(=C\\c3ccc(OC)c(OC)c3)C2=O)cc(OC)c1"
observation_type = "log10 IC50"
recorded_value = 0.59

[[record]]
smiles_entry = "COc1ccc(/C=C2\\CCC/C(=C\\c3ccc(O)cc3)C2=O)cc1OC"
observation_type = "log10 IC50"
recorded_value = 1.23

[[record]]
smiles_entry = "COc1ccccc1/C=C1\\CCC/C(=C\\c2cccc(OC)c2OC)C1=O"
observation_type = "log10 IC50"
recorded_value = 1.08

[[record]]
smiles_entry = "COc1ccc(/C=C2\\CCC/C(=C\\c3ccc(Cl)c(Cl)c3)C2=O)cc1OC"
observation_type = "log10 IC50"
recorded_value = 0.64

[[record]]
smiles_entry = "COc1cccc(/C=C2\\CCC/C(=C\\c3cc(OC)c(OC)c(OC)c3)C2=O)c1OC"
observation_type = "log10 IC50"
recorded_value = 0.15

[[record]]
smiles_entry = "COc1cccc(/C=C2\\CCC/C(=C\\c3ccc(O)c(O)c3)C2=O)c1OC"
observation_type = "log10 IC50"
recorded_value = 0.67

[[record]]
smiles_entry = "COc1cccc(/C=C2\\CCC/C(=C\\c3cccc(Cl)c3)C2=O)c1OC"
observation_type = "log10 IC50"
recorded_value = 1.08

[[record]]
smiles_entry = "COc1cc(/C=C2\\CCC/C(=C\\c3cccc(OC)c3OC)C2=O)cc(OC)c1"
observation_type = "log10 IC50"
recorded_value = 0.23

[[record]]
smiles_entry = "COc1cccc(/C=C2\\CCC/C(=C\\c3cccc(O)c3)C2=O)c1OC"
observation_type = "log10 IC50"
recorded_value = 0.94

[[record]]
smiles_entry = "COc1ccccc1/C=C1\\CCC/C(=C\\c2ccc(OC)c(OC)c2)C1=O"
observation_type = "log10 IC50"
recorded_value = 0.90

[[record]]
smiles_entry = "COc1cccc(/C=C2\\CCC/C(=C\\c3ccc(Cl)cc3)C2=O)c1OC"
observation_type = "log10 IC50"
recorded_value = 1.01


Reference for the values: ChEMBL document CHEMBL4270616
